assayOverview: in vitro
conditions: human
measuredAttribute: CC50

molecule: CCOC(=O)C1=C(C)NC2=C(C(=O)CC(C)(C)C2)C1c1ccc(-c2ccccc2)cc1 (stereo not shown)
measured: 22.4 µM

molecule: CCC(C)C1NC(=O)C(C(C)=O)=C1O (stereo not shown)
measured: > 30 µM

molecule: COc1cc2c(cc1OC)[C@@H]1[C@H](O)[C@@H](OC)C=C3CCN(C2)[C@H]31
measured: > 30 µM

molecule: COc1ccc2c(c1)C=C1Cn3c-2c(C2CCCCC2)c2ccc(cc23)C(=O)N[S+](=O)([O-])N(C)CCOCCN(C)C1=O
measured: > 30 µM

molecule: CC(=O)OC[C@]12[C@H](OC(C)=O)C(=O)[C@@H]3[C@@H](O)[C@@]14O[C@@]3(C)COC(=O)c1cccnc1[C@@H](C)[C@H](C)C(=O)O[C@@H]([C@H](OC(C)=O)[C@@H]2OC(C)=O)[C@]4(C)O
measured: > 30 µM

molecule: C=C(CO)[C@@]12O[C@@H]1[C@@]1(C)C(=CC2=O)CC[C@@H](O)[C@@H]1C
measured: > 30 µM

molecule: CNC(=O)c1cc(Oc2ccc(NC(=O)Nc3cc(C(C)(C)C)nn3-c3ccc4ncccc4c3)c(F)c2)ccn1
measured: > 30 µM
